Values from patent US20210214410A1

Target: human interleukin 13 receptor alpha 1 (IL-13Rα1), biotinylated ectodomain (human) (UniProt P78552)
Experiment: SPR (Biacore T100), biotinylated receptor on SA chip, 1:1 kinetic fit
observationType: kon (M⁻¹ s⁻¹)
Output spec: scalar in M⁻¹ s⁻¹, unitless text.

Use the examples below as a reference point.
Input line: Answer with the recorded kon for the binder listed here: A8 (ligand, also called IL-13 variant A8 (L10I, V18I, D87S, T88S, K89R, L101H, K104R, K105T)) cytokine: PGPVPPSTAIRELIEELINITQNQKAPLCNGSMVWSINLTAGMYCAALESLINVSGCSAIEKTQRMLSGFCPHKVSAGQFSSLHVRSSRIEVAQFVKDLLHHLRTLFREGQFN
Output line: 1.64e+06

Input line: Answer with the recorded kon for the binder listed here: A5 (ligand, also called IL-13 variant A5 (R11I, V18I, R86K, D87G, T88S, L101H, K104R, K105A, F107M)) cytokine: PGPVPPSTALIELIEELINITQNQKAPLCNGSMVWSINLTAGMYCAALESLINVSGCSAIEKTQRMLSGFCPHKVSAGQFSSLHVKGSKIEVAQFVKDLLHHLRALMREGQFN
Output line: 2.8e+06

Input line: Answer with the recorded kon for the binder listed here: B6 (ligand, the sheet prints K at position 89 (same as wild type); also called IL-13 variant B6 (L10T, V18I, D87G, T88S, L101Y, K104R, K105T)) cytokine: PGPVPPSTATRELIEELINITQNQKAPLCNGSMVWSINLTAGMYCAALESLINVSGCSAIEKTQRMLSGFCPHKVSAGQFSSLHVRGSKIEVAQFVKDLLYHLRTLFREGQFN
Output line: 1.4e+06

Input line: Answer with the recorded kon for the binder listed here: A7 (ligand, also called IL-13 variant A7 (L10I, V18I, D87G, T88S, L101H, K104R, K105A)) cytokine: PGPVPPSTAIRELIEELINITQNQKAPLCNGSMVWSINLTAGMYCAALESLINVSGCSAIEKTQRMLSGFCPHKVSAGQFSSLHVRGSKIEVAQFVKDLLHHLRALFREGQFN
Output line: 2.9e+06

Input line: Answer with the recorded kon for the binder listed here: B2 (ligand, also called IL-13 variant B2 (V18I, R86T, D87G, T88S, L101Y, K104R, K105A)) cytokine: PGPVPPSTALRELIEELINITQNQKAPLCNGSMVWSINLTAGMYCAALESLINVSGCSAIEKTQRMLSGFCPHKVSAGQFSSLHVTGSKIEVAQFVKDLLYHLRALFREGQFN
Output line: 6.3e+06

Input line: Answer with the recorded kon for the binder listed here: A11 (ligand, also called IL-13 variant A11 (L10V, V18I, D87S, T88S, L101F, K104R, K105T)) cytokine: PGPVPPSTAVRELIEELINITQNQKAPLCNGSMVWSINLTAGMYCAALESLINVSGCSAIEKTQRMLSGFCPHKVSAGQFSSLHVRSSKIEVAQFVKDLLFHLRTLFREGQFN
Output line: 1.64e+07

Input line: Answer with the recorded kon for the binder listed here: A6 (ligand, also called IL-13 variant A6 (L10I, V18L, R86M, D87K, T88S, L101H, K104R, K105A)) cytokine: PGPVPPSTAIRELIEELLNITQNQKAPLCNGSMVWSINLTAGMYCAALESLINVSGCSAIEKTQRMLSGFCPHKVSAGQFSSLHVMKSKIEVAQFVKDLLHHLRALFREGQFN
Output line: 1.77e+06

Next, consider the following binder.
Input line: Answer with the recorded kon for the binder listed here: IL-13 variant B4 (R11S, V18I, R86K, D87G, T88S, K89M, L101Y, K104R, K105T) (ligand, also called polypeptide B4) PGPVPPSTALSELIEELINITQNQKAPLCNGSMVWSINPTAGMYCAALESLINVSGCSAIEKTQRMLSGFCPHKVAAGQFSSLHDKGSMIEVAQFVKDLLYHLRTLFREGQFNHHHHHH
Output line: 1.36e+06
